Tested on: CAKI-1
Assay: Cytotoxicity against human Caki1 cells
Format: cell-based
reported.metric: LC50 (µM)
API: value field is a number in µM; no unit string.

(Q) Lab note: need LC50 for CC(/C=C/c1ccccc1)n1cc(/C=C/C(=O)NO)nn1 (centres undefined) on CAKI-1, anyone have it?
(A) 34.7

(Q) Lab note: need LC50 for O=C(/C=C/c1ccc(CN(CCO)CCc2c[nH]c3ccccc23)cc1)NO on CAKI-1, anyone have it?
(A) 5.79

(Q) Lab note: need LC50 for O=C(/C=C/c1cn(C(/C=C/c2ccccc2)Cc2ccccc2)nn1)NO (centres undefined) on CAKI-1, anyone have it?
(A) 6.25

(Q) Lab note: need LC50 for CC(C)C(/C=C/c1ccccc1)n1cc(/C=C/C(=O)NO)nn1 (centres undefined) on CAKI-1, anyone have it?
(A) 6.3
